Experiment: Human HepG2 cell viability assay in 384 well format
Assay type: toxicity, cell-based
Set-up: dose 125 nL, time 70.5 hour; concentration not given beside the values
Settings: HepG2 cells, read-out: Inhibition
quantityKind: cytotoxicity at 70.5 h (%)
I only need the number, in %, no unit after it.

Reported cytotoxicity at 70.5 h of CCN1CCN(CCCNc2ncccn2)CC1 : 9.52

Reported cytotoxicity at 70.5 h of COCCN(C/C=C/c1ccccc1)Cc1[nH]cnc1C : 1.05

Reported cytotoxicity at 70.5 h of CC(C)OCCN(Cc1cccc(O)c1)C1CCC(O)CC1 (centres undefined) : -3.81

Reported cytotoxicity at 70.5 h of Cc1nc(-c2ccc(CO)cc2)cc(C2CCNCC2)n1 : -2.27

Reported cytotoxicity at 70.5 h of O=C1COC2(CCN(Cc3cccs3)CC2)CN1c1ccsc1 : 1.63

Reported cytotoxicity at 70.5 h of CN1CCC(NC(=O)Nc2ccc(Br)c(F)c2)C1=O (centres undefined) : 1.65

Reported cytotoxicity at 70.5 h of Cc1cc(C)n(CCCNC(=O)C(C)NC(=O)CC2CCCCC2)n1 (centres undefined) : -5.96

Reported cytotoxicity at 70.5 h of Cn1cnc2cc(CCC(=O)Nc3n[nH]c(C4CC4)n3)ccc21 : 17.9

Reported cytotoxicity at 70.5 h of COCc1ccc(CNc2cnn(C(C)(C)C)c(=O)c2Cl)cc1 : 19.8

Reported cytotoxicity at 70.5 h of O=C(CCNc1ncccn1)N1CCC(Nc2cccnn2)CC1 : -2.9

Reported cytotoxicity at 70.5 h of Cc1nccn1-c1ccc(C(C)Nc2cnn(C)c(=O)c2Cl)cc1 (centres undefined) : 9.7

Reported cytotoxicity at 70.5 h of O=C(NCc1cccs1)C1CCN(c2cc(-n3ccnc3)ncn2)CC1 : -0.911

Reported cytotoxicity at 70.5 h of CCc1cc(NC(=O)c2cccc(OCC(F)(F)F)n2)[nH]n1 : -2.9

Reported cytotoxicity at 70.5 h of Cc1cc(N2CCC(C(=O)NC3CC3)CC2)nc(-c2ccncc2)n1 : -7.6

---

Exercise: state measured cytotoxicity at 70.5 h for each of the compounds provided.
Assay: Human HepG2 cell viability assay in 384 well format
Type: toxicity, cell-based
Set-up: dose 125 nL, time 70.5 hour; concentration not given beside the values
Settings: HepG2 cells, read-out: Inhibition
I only need the number, in %, no unit after it.

Reported cytotoxicity at 70.5 h of COc1c(C(=O)NCc2cccnc2)nnn1Cc1ccc(C)cc1 : -15.1

Reported cytotoxicity at 70.5 h of Cc1cc(C2CCCN(C(=O)COc3ccccc3F)C2)n[nH]1 (centres undefined) : 12.5

Reported cytotoxicity at 70.5 h of CC(C)N1CCC(N2CCN(C3CCCCC3)CC2CCO)CC1 (centres undefined) : -10.5

Reported cytotoxicity at 70.5 h of Cc1ncsc1C(=O)NCC1SCCc2ccccc21 (centres undefined) : 6.22

Reported cytotoxicity at 70.5 h of Cc1cc(C(=O)N2CC[C@](C)(O)[C@H](C)C2)c(C)n1C : 18.2

Reported cytotoxicity at 70.5 h of O=S(=O)(c1ccccc1Cl)N1CCc2nc(C3CCNCC3)ncc2C1 : -3.67

Reported cytotoxicity at 70.5 h of Fc1ccc(CN2CCc3ncnc(C4CCOC4)c3CC2)cc1 (centres undefined) : -5.46

Reported cytotoxicity at 70.5 h of CNS(=O)(=O)c1cc(C(=O)NC2COc3ccccc3C2)ccc1OC (centres undefined) : 6.83

Reported cytotoxicity at 70.5 h of CC1CCN(C(=O)c2sccc2-n2cnnn2)CC1 : -4.67

Reported cytotoxicity at 70.5 h of CN(Cc1ccc(-n2cccn2)cc1)C(=O)CCC(F)(F)F : 26.9

Reported cytotoxicity at 70.5 h of CC(=O)N1CCN([C@@H]2CCC[C@@H](NC(=O)c3cccnc3)[C@H]2O)CC1 : -11.5

Reported cytotoxicity at 70.5 h of CC(C)(NC(=O)c1cnc(C(C)(C)C)s1)C(N)=O : 28.5

Reported cytotoxicity at 70.5 h of CN1CCCN(CC(=O)N2CCc3[nH]c(-c4ccccc4)nc3C2)CC1 : -1.3

Reported cytotoxicity at 70.5 h of Cc1cccc(CNC(CN2CCN(C)CC2)c2ccccc2)c1 (centres undefined) : 10.9
